# measured.target: T1, human SLC34A2 (human, UniProt O95436 1-690)
# T1 construct: whole, on cells; also called human solute carrier 34 A2; NaPi2b
# T1 sequence (looked up): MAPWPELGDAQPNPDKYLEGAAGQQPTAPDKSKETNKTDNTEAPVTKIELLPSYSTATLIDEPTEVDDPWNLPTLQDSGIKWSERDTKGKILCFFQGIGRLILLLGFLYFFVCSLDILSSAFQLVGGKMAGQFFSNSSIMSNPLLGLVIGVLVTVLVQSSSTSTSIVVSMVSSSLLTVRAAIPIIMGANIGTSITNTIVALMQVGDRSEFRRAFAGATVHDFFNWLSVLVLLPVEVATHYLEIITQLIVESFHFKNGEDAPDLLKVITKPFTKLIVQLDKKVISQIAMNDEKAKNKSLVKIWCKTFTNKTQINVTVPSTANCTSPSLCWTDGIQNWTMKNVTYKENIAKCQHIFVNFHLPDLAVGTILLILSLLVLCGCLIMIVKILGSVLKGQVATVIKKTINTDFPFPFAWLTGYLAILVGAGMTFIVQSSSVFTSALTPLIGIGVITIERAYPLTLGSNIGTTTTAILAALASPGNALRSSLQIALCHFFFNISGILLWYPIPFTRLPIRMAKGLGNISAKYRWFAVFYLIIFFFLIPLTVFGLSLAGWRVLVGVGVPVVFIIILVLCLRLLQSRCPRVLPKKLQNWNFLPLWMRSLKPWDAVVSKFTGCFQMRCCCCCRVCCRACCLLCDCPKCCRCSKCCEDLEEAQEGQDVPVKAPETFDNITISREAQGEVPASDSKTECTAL
# experimental.protocol: FACS, HEK293/human SLC34A2 cells
Here, each record is paired with measured Top (MFI) data.
Answer with a number only, understood to be in MFI.

In the examples that follow, each entry is paired with its recorded Top (MFI).
[[record]]
binder = "63A11D5B4 VH_P1/VL hIgG1 (antibody, V domains shown, PTM-derisked chimeric, hIgG1; that P1 is the SG version follows from the humanized .p1 chains; also called 63A11D5B4.p1 hIgG1) VH: QVQLQQPGAELVKPGASVKMSCRTSGYTFITYNMHWVKQTPGQGREWIGAIYPGSGDTSYNQKFKGKATLTADKSSSTAYMQLNSLTSEDSAVYYCSISTIITTGAVDYWGQGTSVTVAS VL: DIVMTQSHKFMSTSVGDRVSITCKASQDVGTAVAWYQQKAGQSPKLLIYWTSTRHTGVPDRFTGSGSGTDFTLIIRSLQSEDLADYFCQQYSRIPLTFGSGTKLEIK"
readout_kind = "Top (MFI)"
recorded_measurement = 30400

[[record]]
binder = "xi55E5B6D12 hIgG1 (antibody, V domains shown, chimeric, hIgG1) VH: QVQLQQSGAEVVNSGASVKMSCKASGYTFTTYNMHWVKQTPGQGLEWIGAIYPGNGDTSYNQRFKGKATFTADRSSGTAYMQLSSLPSEDSAVYYCARGGYANGALVDWGQGTLVTVSA VL: DILMTQSHKFMSTSVGDRVTITCKASQDVGTAVAWYQNKPGQSPKLLIFWTSTRHTGVPDRFTGSGSGTDFTLTISNVQSEDLADYFCQQYSRQPLTFGPGTKLEIK"
readout_kind = "Top (MFI)"
recorded_measurement = 30400


**Q:** Name the reported Top (MFI) value associated with the binder 62G10E4G8 VH_P3/VL hIgG1 (antibody, V domains shown, PTM-derisked chimeric, hIgG1; that P3 is the NA version follows from the humanized .p3 chains; also called 62G10E4G8.p3 hIgG1) VH: QVQLQQSGAEVVKPGASVKMSCKASGYTFPSYITHWVKQTPGQGLEWIGAIYPGNADTSYIQKFKGKATLTADKSSSTAYMQLSSLTSEDSAVYYCARGTYGTSAWFTYWGQGTLVTVSA VL: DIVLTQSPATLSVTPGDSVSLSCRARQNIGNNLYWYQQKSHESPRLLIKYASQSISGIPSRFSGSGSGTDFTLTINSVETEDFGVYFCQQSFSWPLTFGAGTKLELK
**A:** 30800

**Q:** Name the reported Top (MFI) value associated with the binder xi63A11D5B4 hIgG1 (antibody, V domains shown, chimeric, hIgG1) VH: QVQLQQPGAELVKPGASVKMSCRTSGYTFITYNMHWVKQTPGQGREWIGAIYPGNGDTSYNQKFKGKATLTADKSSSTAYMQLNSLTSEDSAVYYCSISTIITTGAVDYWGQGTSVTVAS VL: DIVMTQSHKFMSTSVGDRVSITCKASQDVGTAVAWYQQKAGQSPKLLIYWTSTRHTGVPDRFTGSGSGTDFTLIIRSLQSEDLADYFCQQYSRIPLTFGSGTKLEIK
**A:** 30400

**Q:** Name the reported Top (MFI) value associated with the binder xi62G10E4G8 hIgG1 (antibody, V domains shown, chimeric, hIgG1) VH: QVQLQQSGAEVVKPGASVKMSCKASGYTFPSYITHWVKQTPGQGLEWIGAIYPGNGDTSYIQKFKGKATLTADKSSSTAYMQLSSLTSEDSAVYYCARGTYGTSAWFTYWGQGTLVTVSA VL: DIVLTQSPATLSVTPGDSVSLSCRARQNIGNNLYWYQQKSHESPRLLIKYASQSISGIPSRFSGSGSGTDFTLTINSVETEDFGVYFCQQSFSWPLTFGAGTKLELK
**A:** 30300
